biological target: DNA topoisomerase 4 subunit B (Escherichia coli K-12, UniProt P20083); assay: Inhibition of Escherichia coli ParE
Sequence (P20083 whole entry): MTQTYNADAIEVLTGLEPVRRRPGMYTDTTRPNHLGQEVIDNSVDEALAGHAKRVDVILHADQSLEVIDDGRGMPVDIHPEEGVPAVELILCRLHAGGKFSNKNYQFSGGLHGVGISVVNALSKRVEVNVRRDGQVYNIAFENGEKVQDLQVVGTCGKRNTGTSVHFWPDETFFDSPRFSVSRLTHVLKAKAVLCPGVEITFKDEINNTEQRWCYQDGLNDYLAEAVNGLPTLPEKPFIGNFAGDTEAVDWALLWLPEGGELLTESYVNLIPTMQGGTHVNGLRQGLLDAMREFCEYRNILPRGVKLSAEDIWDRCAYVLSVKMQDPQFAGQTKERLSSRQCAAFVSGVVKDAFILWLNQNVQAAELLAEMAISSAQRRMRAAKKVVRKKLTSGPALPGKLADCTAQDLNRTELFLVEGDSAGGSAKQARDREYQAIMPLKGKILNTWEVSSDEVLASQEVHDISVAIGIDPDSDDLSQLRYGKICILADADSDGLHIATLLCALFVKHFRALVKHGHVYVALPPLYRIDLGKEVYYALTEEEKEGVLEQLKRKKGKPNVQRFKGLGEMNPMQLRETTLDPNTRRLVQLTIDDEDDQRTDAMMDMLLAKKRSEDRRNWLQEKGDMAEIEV
MEASURED_PROPERTY: IC50 (nM)

I. CCNC(=O)Nc1cc(Nc2ccc(OC)cc2OC)c(C(=O)Nc2cccnc2)cn1
II. CCNC(=O)Nc1cc(Nc2cccc(O)c2)c(C(=O)Nc2cccnc2)cn1
Of the two listed items, I and II , which carries the larger IC50 figure? API: response body contains the label of the selected item.
I
(I: 42000 nM, II: 780 nM)

====

target: DNA gyrase (Escherichia coli, UniProt P0AES4+P0AES6); assay: Inhibition of Escherichia coli GyrB A2B2 subunits assessed reduction in DNA supercoiling activity by malachite green dye based by spectrophotometry
MEASURED_PROPERTY: IC50 (µM)

>  <SMILES_REPRESENTATION>
CCNC(=O)Nc1ccc(C(=O)Nc2cccc(C#N)c2)cn1

>  <UNITS_TEXT>
µM

>  <IC50>
3.8

$$$$

P. CCNC(=O)Nc1cc(-c2cccnc2)c(C(=O)Nc2cccc(Cl)c2)cn1
Q. CCNC(=O)Nc1ccc(C(=O)Nc2cc(C(=O)OC)ccn2)cn1
R. CCNC(=O)Nc1cc(Nc2ccc(OC)cc2OC)c(C(=O)Nc2cccnc2)cn1
Provide the items ranked by increasing IC50. The reply should contain the labels ordered as requested.
R, P, Q
(R: 0.046 µM, P: 3.02 µM, Q: 14 µM)

From: ChEMBL document CHEMBL3351278
